Biological target: Sgk2 (Homo sapiens)
Sequence (Q9HBY8 whole entry): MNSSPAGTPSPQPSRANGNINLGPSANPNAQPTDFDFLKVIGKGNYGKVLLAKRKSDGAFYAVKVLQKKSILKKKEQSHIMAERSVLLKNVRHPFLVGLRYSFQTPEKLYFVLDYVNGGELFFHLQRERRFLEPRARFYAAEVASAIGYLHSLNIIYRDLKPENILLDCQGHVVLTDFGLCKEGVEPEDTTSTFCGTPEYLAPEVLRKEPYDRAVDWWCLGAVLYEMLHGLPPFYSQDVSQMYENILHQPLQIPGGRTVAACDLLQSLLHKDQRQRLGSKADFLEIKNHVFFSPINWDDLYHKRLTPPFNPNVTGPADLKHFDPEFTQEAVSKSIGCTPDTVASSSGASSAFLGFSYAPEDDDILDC
Test: Enzyme based assay for SGK2 (biotinylated Akt Substrates-2 peptide, Eu3+ Cryptate/XL665 detection)
Type: biochemical
Details: 50 μM ATP; read-out: Sgk2 (50 μM ATP)
Assign pIC50 to each entry below.
Field pIC50 (float): negative decimal logarithm of the concentration in molar.

Fill in: pIC50 of `CCOc1cc(-c2ccc(NS(=O)(=O)c3cc(OC)ccc3F)cc2)nc2[nH]nc(N)c12` is ___
8.11

Do the same for `COc1ccc(F)c(S(=O)(=O)Nc2ccc(-c3cc(C)c4c(N)n[nH]c4c3)nc2)c1` please
8.30

Do the same for COc1ccc(F)c(S(=O)(=O)Nc2ccc(-c3cc4[nH]ncc4c(OCC4CNCCO4)n3)cc2)c1 (stereo not drawn) [drawing 105] please
8.80

Do the same for `COc1ccc(F)c(S(=O)(=O)Nc2ccc(-c3cc4c5c(n[nH]c5c3)NC(=O)CO4)cc2)c1` please
7.61

Do the same for `COc1ccc(F)c(S(=O)(=O)Nc2ccc(-c3cc(OCCO)c4c(N)n[nH]c4c3)cc2)c1` please
8.10

Do the same for `COc1ccc(F)c(S(=O)(=O)Nc2ccc(-c3ccc4c(N)n[nH]c4c3)cc2)c1` please
8.21
